readout-kind: melting point

According to the records, this compound `Cc1nc2c(F)cccc2cc1C1=NC(C)(C)Sc2c(Cl)cccc21` displays melting point of 134 to 136 °C

According to the records, this compound `CC1(C)N=C(c2cnc3c(F)cccc3c2)c2cccc(Cl)c2S1` displays melting point of 158 to 160 °C

According to the records, this compound `Cc1c(Cl)ccc2c1SC(C)(C)N=C2c1cnc2c(F)cccc2c1` displays melting point of 68 to 70 °C

According to the records, this compound `Cc1c(C#N)ccc2c1SC(C)(C)N=C2c1cnc2c(F)c(F)ccc2c1` displays melting point of 216 to 218 °C

According to the records, this compound `Cc1c(Cl)ccc2c1SC(C)(C)N=C2c1cnc2c(F)c(F)ccc2c1` displays melting point of 161 to 163 °C

According to the records, this compound `Cc1cccc2c1SC(C)(C)N=C2c1cnc2c(F)c(F)ccc2c1` displays melting point of 137 to 139 °C

According to the records, this compound `Cc1c(C#N)ccc2c1SC(C)(C)N=C2c1cnc2c(F)cccc2c1` displays melting point of 88 to 90 °C

According to the records, this compound `CC1(C)N=C(c2cnc3c(F)c(F)ccc3c2)c2cccc(Cl)c2S1` displays melting point of 134 to 136 °C

According to the records, this compound `Cc1ccc2c(c1F)SC(C)(C)N=C2c1cnc2c(F)cccc2c1` displays melting point of 159 to 161 °C
